// pIC50 collected for Kallikrein-7 (Homo sapiens, UniProt P49862)
pIC50: −log10 of the molar value.
Property Label: pIC50

A. COc1ccc(/C=C2/SC(=O)N(CNc3cc(F)ccc3C)C2=O)cc1OC
B. Nc1ccc2[nH]c(SCc3nc4ccccc4c(=O)n3-c3cccc(C(F)(F)F)c3)nc2c1
Hi! Which is lower in terms of pIC50, the first one A or the second one B ? # respond with the chosen item's label A

Data provenance: ChEMBL document CHEMBL3098059
